Numbers sourced from ChEMBL document CHEMBL4804281.

Each entry below carries its reported IC50.
target or test system: Serine/threonine-protein kinase 24 (Homo sapiens)
run description: Inhibition of STK24 (unknown origin) using fluorescein-labelled Ser/Thr-07 peptide as substrate incubated for 1 hr in presence of ATP at Km concentration by Z-LYTE assay
measurement type: IC50 (nM)

• COc1cc(S(=O)(=O)N(C)C2CC2)ccc1-c1cnc(N)c(-c2ccc3c(c2)CCNC3=O)c1 = 40
• COc1cc(NS(=O)(=O)C2CC2)ccc1-c1cnc(N)c(-c2ccc3c(c2)CCNC3=O)c1 = 200
• N#Cc1cccc(-c2cnc(N)c(-c3ccc4c(c3)CCNC4=O)c2)c1 = 200
• Nc1ncc(-c2cccc(S(=O)(=O)NC3CC3)c2)cc1-c1ccc2c(c1)CCNC2=O = 200
• Nc1ncc(-c2ccc(NS(=O)(=O)C3CC3)cc2F)cc1-c1ccc2c(c1)CCNC2=O = 40
• CN(C1CC1)S(=O)(=O)c1ccc(-c2cnc(N)c(-c3ccc4c(c3)CCNC4=O)c2)c(F)c1 = 40
